Where do these numbers come from? They come from PubChem BioAssay (NCI).

# Tested on: SNB-75 CNS
# assayDetails: NCI-60 one-dose screen, 48 h (100 = growth as untreated, 0 = no growth, -100 = all killed)
# measurementParameters: 10 µM
Compounds without any hit were thinned out: in the full panel of roughly 83,000, 20% have a hit.
Rule: growth below -80% gives True, anything at or above gives False.

| molecule | labelClass |
| --- | --- |
| COc1cc(/C=C/[N+](=O)[O-])cc(OC)c1OC | False |
| O=[N+]([O-])/C=C/c1ccc(Cl)cc1[N+](=O)[O-] | False |

Q) Check if growth falls below -80% for CC[C@@]1(O)C[C@H](OC2CC(N(C)C)C(O)C(C)O2)c2c(cc3c(c2O)C(=O)c2c(O)ccc(O)c2C3=O)[C@H]1C(=O)OC (stereo partly specified) .
A) True

Q) Check if growth falls below -80% for "O=[P+](O)c1ccccc1" .
A) False

Q) Check if growth falls below -80% for "C/C1=C\[C@H](C)C[C@H](C)OC(=O)C[C@H](c2ccc(O)cc2)NC(=O)[C@@H](Cc2c(Br)[nH]c3ccccc23)N(C)C(=O)[C@H](C)NC(=O)[C@@H](C)C1" .
A) False

---

# System: BT-549 breast
# assayDetails: NCI-60 one-dose screen, 48 h (100 = growth as untreated, 0 = no growth, -100 = all killed)
# measurementParameters: 10 µM
This is part of a sample that, as a whole, favours compounds with a hit. Of some 83,000 tested, about 20% had one in any assay.
observable: growth (%)
Answer with a number only, understood to be in %.

| compound | systemUnderTest | growth (%) |
| --- | --- | --- |
| O=[N+]([O-])/C=C\c1ccc2c(c1)OCO2 | BT-549 breast | 91.7 |

Now for another entry.
Q) Reported growth for BT-549 breast, given "CC/C(=C/c1ccc(OC)cc1OC)[N+](=O)[O-]" ?
A) 37.1

---

# Test system: A549/ATCC NSCLC
# assayDetails: NCI-60 one-dose screen, 48 h
# measurementParameters: 10 µM
# Procedure: Growth inhibition of the A549/ATCC human Non-Small Cell Lung tumor cell line is measured as a screen for anti-cancer activity. Cells are grown in 96 well plates and exposed to the test compound for 48 hours. Compounds are tested at a single concentration, which is 10^-5 M for most compounds. The reported endpoint is percent growth (GI% or GIPRCNT), where numbers from 0 - 100% represent growth inhibition, and numbers from -100% - 0 represent cell death. […]
The panel holds about 83,000 compounds, 20% with a hit somewhere; the sample as a whole holds those more often. Activity calls are given as the source filed them. The calls were made as follows: active = growth percent below 10; inactive = the rest.
Thanks in advance; please answer with one of these: true (1) = active, false (0) = inactive

Observe how each entry below is paired with its result.
| molecule | systemUnderTest | labelClass |
| --- | --- | --- |
| C[C@@H]1C[C@@H]([C@H](O)CC2CC(=O)NC(=O)C2)C(=O)[C@@H](C)C1 | A549/ATCC NSCLC | true (1) |
| CC12OOC(c3ccccc31)c1c2ccc2ccccc12 (stereo not given) | A549/ATCC NSCLC | false (0) |
| C[CH2][Hg][S]c1ccccc1C(=O)O | A549/ATCC NSCLC | false (0) |
| O=C1C=Cc2ccccc2C1=O | A549/ATCC NSCLC | false (0) |
| ClCc1ccc2ccccc2n1 | A549/ATCC NSCLC | false (0) |
| O=[P+](O)c1ccccc1 | A549/ATCC NSCLC | false (0) |

Q) Query: recorded result category for "COc1cc([C@@H]2c3cc4c(c(O)c3C[C@H]3COC(=O)[C@@H]32)OCO4)cc(OC)c1OC" in this test
A) false (0)

Q) Query: recorded result category for "C[C@]12CC[C@H]3[C@@H](CCC4=CC(=O)CC[C@@H]43)[C@@H]1CC[C@@H]2OC(=O)N(CCCl)N=O" in this test
A) false (0)

Q) Query: recorded result category for "CC/C(=C/c1ccc(OC)cc1OC)[N+](=O)[O-]" in this test
A) false (0)

Q) Query: recorded result category for "O=[N+]([O-])/C=C\c1ccc2c(c1)OCO2" in this test
A) false (0)

Q) Query: recorded result category for "O=C(CCl)Nc1ccc(Cl)cc1" in this test
A) false (0)

---

# Tested on: MOLT-4 leukemia
# assayDetails: NCI-60 one-dose screen, 48 h (100 = growth as untreated, 0 = no growth, -100 = all killed)
# measurementParameters: 10 µM
Compounds without any hit were thinned out: in the full panel of roughly 83,000, 20% have a hit.
observable: growth (%)
Answer with a number only, understood to be in %.

| compound | assayResult |
| --- | --- |
| COc1ccccc1[As]=[As]c1ccccc1OC (centres undefined) | -9.7 |
| CC(C)c1cc([N+](=O)[O-])cc([N+](=O)[O-])c1O | 98.2 |
| CC(=O)[O][Hg][c]1c(C)c(C)cc(C)c1C | -5.69 |

Now for another entry.
Q) What does the record list as growth for "Cc1cc(C)c(C[N+](C)(C)C)c(C)c1C" ?
A) 3.91

---

Reported growth values for the following molecules.
# Test system: BT-549 breast
# assayDetails: NCI-60 one-dose screen, 48 h (100 = growth as untreated, 0 = no growth, -100 = all killed)
# measurementParameters: 10 µM
This is part of a sample that, as a whole, favours compounds with a hit. Of some 83,000 tested, about 20% had one in any assay.
Answer with a number only, understood to be in %.

| molecule | growth [%] |
| --- | --- |
| COc1cc(/C=C/[N+](=O)[O-])cc(OC)c1OC | 40.6 |
| CC[C@@]1(O)C[C@H](OC2CC(N(C)C)C(O)C(C)O2)c2c(cc3c(c2O)C(=O)c2c(O)ccc(O)c2C3=O)[C@H]1C(=O)OC (stereo partly drawn) | -80.2 |
| NC(=O)c1cc([N+](=O)[O-])c(Cl)c([N+](=O)[O-])c1 | 113 |
| COC(C(=O)C(O)C(C)O)C1Cc2cc3cc(OC4CC(OC(C)=O)C(OC5CC(O)C(OC)C(C)O5)C(C)O4)cc(O)c3c(O)c2C(=O)C1OC1CC(OC2CC(OC3CC(C)(O)C(OC(=O)C(C)C)C(C)O3)C(O)C(C)O2)C(O)C(C)O1 (stereo not drawn) | -74.8 |
| COc1cc2c(c(OC)c1OC)-c1ccc(O)c(=O)cc1[C@@H](NC(C)=O)CC2 | 59.9 |
| COC1CC2C=C(C)/C=C/C=C/C(=O)NC(c3ccccc3)C/C=C/CCC(O)CC(=O)C2=C1O (stereo not drawn) | -98 |
| Oc1c(Cl)cc(Cl)c2ccccc12.[Cu+2] | 106 |

Now for another entry.
Q) Reported growth for BT-549 breast, given "Cc1cc(C)c(C[N+](C)(C)C)c(C)c1C" ?
A) 7.59

---

# System: A549/ATCC NSCLC
# assayDetails: NCI-60 one-dose screen, 48 h
# measurementParameters: 10 µM
About 83,000 compounds went through this panel and 20% of them were active in at least one assay; those are over-represented in the sample as a whole. The source made the active and inactive calls. How the source made its calls: active means growth percent below 10; inactive means the rest.
Thanks in advance; please answer with one of these: 1.0 = active, 0.0 = inactive

| compound | labelClass |
| --- | --- |
| COS(=O)(=O)c1ccccc1 | 0.0 |

Q) Query: recorded result category for NC(Cc1ccccc1)c1ccccc1 (centres undefined) in this test
A) 0.0

Q) Query: recorded result category for "CCOP(=O)(OCC)/C(C#N)=C/c1ccc(Br)cc1" in this test
A) 0.0

Q) Query: recorded result category for "CN(CCCl)c1ccc(/C=C/C2=[N+](C)c3ccccc3C2(C)C)cc1" in this test
A) 0.0

Q) Query: recorded result category for "CC(C)(C)OOC(=O)/C=C\C(=O)OOC(C)(C)C" in this test
A) 0.0

Q) Query: recorded result category for "O=[N+]([O-])c1ccc(N(CCO)CCO)c2c1no[n+]2[O-]" in this test
A) 1.0

---

# System: MOLT-4 leukemia
# assayDetails: NCI-60 one-dose screen, 48 h
# measurementParameters: 10 µM
This is part of a sample that, as a whole, favours compounds with a hit. Of some 83,000 tested, about 20% had one in any assay. Activity calls are given as the source filed them. How the source made its calls: active means growth percent below 10; inactive means the rest.
Thanks in advance; please answer with one of these: active, inactive

Observe how each entry below is paired with its result.
| smiles | labelClass |
| --- | --- |
| Cc1cc([N+](=O)[O-])c2ccccc2[n+]1[O-] | active |
| O=[N+]([O-])c1ccc(N2CCOCC2)c2c1no[n+]2[O-] | active |
| COS(=O)(=O)c1ccccc1 | inactive |
| CCOP(=O)(OCC)/C(C#N)=C/c1ccc(Br)cc1 | inactive |
| CCCCCCCC[N+]12CN3CN(CN(C3)C1)C2 | inactive |

Q) Query: recorded result category for "Cc1ccc(NC(=O)CBr)cc1" in this test
A) inactive

Q) Query: recorded result category for "S=C=NCCc1ccccc1" in this test
A) inactive

Q) Query: recorded result category for "O=C(CBr)Nc1ccc(Cl)cc1" in this test
A) inactive

Q) Query: recorded result category for "COc1cc(/C=C/[N+](=O)[O-])cc(Br)c1OC" in this test
A) inactive

Q) Query: recorded result category for "O=[N+]([O-])c1ccc(N(CCO)CCO)c2c1no[n+]2[O-]" in this test
A) active
